# study_target: STK17A (human)
# experiment: radiometric filter-binding kinase assay, Kinase HotSpot
# condition_set: compound 0.5 µM; ATP 10 µM
Record form. Attribute: residual activity. Fill in for each entry.
Express your answer as a number followed by its unit.

residual activity lookup needed for `Cc1ccc(Nc2nccc(N(C)c3ccc4c(C)n(C)nc4c3)n2)cc1S(N)(=O)=O` , thanks.
95.9%

residual activity lookup needed for `CCOC(=O)c1c(C)[nH]c(/C=C2\C(=O)Nc3ccccc32)c1C` , thanks.
81.4%

residual activity lookup needed for `O=C1NC(=O)C(c2cn(CCCn3ccnc3)c3ccccc23)=C1Nc1ccccc1` , thanks.
93.1%

residual activity lookup needed for `COc1cc2ncnc(Nc3cccc(Cl)c3)c2cc1OC` , thanks.
95.4%

residual activity lookup needed for `CCCC(=O)Oc1ccc2[nH]c(C(=O)c3cc4ccccc4[nH]3)cc2c1` , thanks.
90.9%

###

# study_target: PKN2 (human) (UniProt Q16513)
# Sequence (Q16513 whole entry, looked up): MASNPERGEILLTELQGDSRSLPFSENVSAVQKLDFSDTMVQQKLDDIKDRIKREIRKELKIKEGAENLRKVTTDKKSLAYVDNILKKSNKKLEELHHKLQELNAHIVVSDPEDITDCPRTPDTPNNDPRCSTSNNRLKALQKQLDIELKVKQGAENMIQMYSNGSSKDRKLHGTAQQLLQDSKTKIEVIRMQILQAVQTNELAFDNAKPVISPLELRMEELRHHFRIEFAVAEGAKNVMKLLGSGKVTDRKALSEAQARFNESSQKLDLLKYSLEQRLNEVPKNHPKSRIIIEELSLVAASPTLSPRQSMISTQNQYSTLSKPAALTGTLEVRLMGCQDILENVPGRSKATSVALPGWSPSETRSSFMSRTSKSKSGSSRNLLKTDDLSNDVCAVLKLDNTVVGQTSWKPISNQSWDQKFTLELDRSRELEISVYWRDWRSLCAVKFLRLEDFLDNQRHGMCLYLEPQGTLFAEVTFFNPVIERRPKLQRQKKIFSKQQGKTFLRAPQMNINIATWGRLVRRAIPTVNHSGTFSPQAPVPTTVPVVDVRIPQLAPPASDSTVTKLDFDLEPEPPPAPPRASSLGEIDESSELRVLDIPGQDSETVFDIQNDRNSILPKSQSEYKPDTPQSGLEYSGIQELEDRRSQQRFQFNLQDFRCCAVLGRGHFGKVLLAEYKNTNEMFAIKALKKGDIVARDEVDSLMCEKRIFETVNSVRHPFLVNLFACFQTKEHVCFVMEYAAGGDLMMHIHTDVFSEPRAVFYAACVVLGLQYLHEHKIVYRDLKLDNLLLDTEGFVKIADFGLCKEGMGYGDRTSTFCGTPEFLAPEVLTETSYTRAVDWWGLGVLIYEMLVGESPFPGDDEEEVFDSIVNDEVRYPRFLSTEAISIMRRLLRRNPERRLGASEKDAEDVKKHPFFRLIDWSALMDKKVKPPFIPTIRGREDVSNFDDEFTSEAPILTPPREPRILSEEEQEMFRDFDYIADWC
# experiment: radiometric filter-binding kinase assay, Kinase HotSpot
# condition_set: compound 0.5 µM; ATP 10 µM
measured_property: residual activity (%)
Give the value, in units of %, as a plain number.

residual activity lookup needed for `Cc1ccc(S(=O)(=O)/C=C/C#N)cc1` , thanks.
81.5

residual activity lookup needed for `Cc1[nH]c(/C=C2\C(=O)Nc3ccc(S(=O)(=O)N(C)c4cccc(Cl)c4)cc32)c(C)c1C(=O)N1CCN(C)CC1` , thanks.
85.4

residual activity lookup needed for `Nc1ncnc2[nH]nc(Nc3ccc(F)cc3)c12` , thanks.
82

residual activity lookup needed for `CCCC(=O)Oc1ccc2[nH]c(C(=O)c3cc4ccccc4[nH]3)cc2c1` , thanks.
100

residual activity lookup needed for `O=C1Nc2ccc(Cl)cc2/C1=C/c1cc(Cl)c(O)c(Cl)c1` , thanks.
114

residual activity lookup needed for `Oc1cccc(-c2nc(N3CCOCC3)c3oc4ncccc4c3n2)c1` , thanks.
87.6

residual activity lookup needed for `O=C1NC(=O)/C(=C/c2ccc3c(c2)OC(F)(F)O3)S1` , thanks.
113

residual activity lookup needed for `O=C(Nc1cccc(Nc2nccc(Nc3cccc(C(F)(F)F)c3)n2)c1)C1CC1` , thanks.
89.5

residual activity lookup needed for `CC(C)N(CCC(=O)c1ccc2ccccc2c1)Cc1ccccc1` , thanks.
98.7

residual activity lookup needed for `N#C/C(=C(/N)Sc1ccc(N)cc1)c1ccccc1C(F)(F)F` , thanks.
99.9

###

# study_target: SRMS (human) (UniProt Q9H3Y6)
# Sequence (Q9H3Y6 whole entry, looked up): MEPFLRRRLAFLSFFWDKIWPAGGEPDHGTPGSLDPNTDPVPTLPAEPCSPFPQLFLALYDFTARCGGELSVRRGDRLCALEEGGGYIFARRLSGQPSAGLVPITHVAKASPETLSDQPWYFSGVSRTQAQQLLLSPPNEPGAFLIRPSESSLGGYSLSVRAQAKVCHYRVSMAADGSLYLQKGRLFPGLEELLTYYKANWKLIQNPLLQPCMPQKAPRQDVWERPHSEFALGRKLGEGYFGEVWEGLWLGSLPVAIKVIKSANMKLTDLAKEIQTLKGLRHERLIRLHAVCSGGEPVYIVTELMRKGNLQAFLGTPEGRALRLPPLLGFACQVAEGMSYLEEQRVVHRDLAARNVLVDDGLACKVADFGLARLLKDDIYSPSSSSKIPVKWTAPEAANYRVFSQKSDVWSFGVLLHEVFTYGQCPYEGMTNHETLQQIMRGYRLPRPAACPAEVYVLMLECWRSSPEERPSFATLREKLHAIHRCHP
# experiment: radiometric filter-binding kinase assay, Kinase HotSpot
# condition_set: compound 0.5 µM; ATP 10 µM
measured_property: residual activity (%)
Give the value, in units of %, as a plain number.

Which measured residual activity belongs to `O=C1NC(=O)C(c2cn(CCCn3ccnc3)c3ccccc23)=C1Nc1ccccc1` , tested on SRMS (human) (UniProt Q9H3Y6)?
103

Which measured residual activity belongs to `Nc1cccc(-c2cc3c(Oc4cccc(O)c4)ncnc3[nH]2)c1` , tested on SRMS (human) (UniProt Q9H3Y6)?
94.4

Which measured residual activity belongs to `CNC(=O)c1cc(Oc2ccc(NC(=O)Nc3ccc(Cl)c(C(F)(F)F)c3)cc2)ccn1` , tested on SRMS (human) (UniProt Q9H3Y6)?
107

Which measured residual activity belongs to `CCOC(=O)c1c(C)[nH]c(/C=C2\C(=O)Nc3ccccc32)c1C` , tested on SRMS (human) (UniProt Q9H3Y6)?
104

Which measured residual activity belongs to `N#C/C(=C(/N)Sc1ccc(N)cc1)c1ccccc1C(F)(F)F` , tested on SRMS (human) (UniProt Q9H3Y6)?
105

Which measured residual activity belongs to `Cc1ccc(Nc2nccc(N(C)c3ccc4c(C)n(C)nc4c3)n2)cc1S(N)(=O)=O` , tested on SRMS (human) (UniProt Q9H3Y6)?
115

Which measured residual activity belongs to `Cc1ccc(NC2=CC(=O)c3sc(C)nc3C2=O)cc1` , tested on SRMS (human) (UniProt Q9H3Y6)?
82.4

Which measured residual activity belongs to `CCC(=O)Nc1ccc2ncnc(Nc3cccc(Br)c3)c2c1` , tested on SRMS (human) (UniProt Q9H3Y6)?
99.4

Which measured residual activity belongs to `CCN(CC)CCNC(=O)c1c(C)[nH]c(/C=C2\C(=O)Nc3ccc(F)cc32)c1C` , tested on SRMS (human) (UniProt Q9H3Y6)?
99.6

Which measured residual activity belongs to `Nc1ccc2ncnc(NCCc3ccc(Oc4ccccc4)cc3)c2c1` , tested on SRMS (human) (UniProt Q9H3Y6)?
99.2

Which measured residual activity belongs to `CCCC(=O)Oc1ccc2[nH]c(C(=O)c3cc4ccccc4[nH]3)cc2c1` , tested on SRMS (human) (UniProt Q9H3Y6)?
104

###

# study_target: PTK6 (human)
# experiment: radiometric filter-binding kinase assay, Kinase HotSpot
# condition_set: compound 0.5 µM; ATP 10 µM
measured_property: residual activity (%)
Give the value, in units of %, as a plain number.

residual activity lookup needed for `Nc1ncnc2c1c(-c1ccc(Oc3ccccc3)cc1)cn2C1CCCC1` , thanks.
0.775

residual activity lookup needed for `CCN(CC)CCNC(=O)c1c(C)[nH]c(/C=C2\C(=O)Nc3ccc(Cl)cc32)c1C` , thanks.
51.3

residual activity lookup needed for `Cc1ccc(NC2=CC(=O)c3sc(C)nc3C2=O)cc1` , thanks.
89.2

residual activity lookup needed for `Cc1ccc(Nc2nccc(N(C)c3ccc4c(C)n(C)nc4c3)n2)cc1S(N)(=O)=O` , thanks.
66.2

residual activity lookup needed for `CNC(=O)c1cc(Oc2ccc(NC(=O)Nc3ccc(Cl)c(C(F)(F)F)c3)cc2)ccn1` , thanks.
96.9

residual activity lookup needed for `O=S(=O)(c1cccc2cnccc12)N1CCCNCC1` , thanks.
96.1

residual activity lookup needed for `O=c1cc(N2CCOCC2)oc2c1ccc1ccccc12` , thanks.
101

residual activity lookup needed for `c1ccc(-c2n[nH]cc2-c2ccnc3ccccc23)nc1` , thanks.
70.9

residual activity lookup needed for `Nc1ncnc2[nH]nc(Nc3ccc(F)cc3)c12` , thanks.
68.3

residual activity lookup needed for `Cc1[nH]c(/C=C2\C(=O)Nc3ccc(S(=O)(=O)N(C)c4cccc(Cl)c4)cc32)c(C)c1C(=O)N1CCN(C)CC1` , thanks.
91.3

###

# study_target: PASK (human) (UniProt Q96RG2)
# Sequence (Q96RG2 whole entry, looked up): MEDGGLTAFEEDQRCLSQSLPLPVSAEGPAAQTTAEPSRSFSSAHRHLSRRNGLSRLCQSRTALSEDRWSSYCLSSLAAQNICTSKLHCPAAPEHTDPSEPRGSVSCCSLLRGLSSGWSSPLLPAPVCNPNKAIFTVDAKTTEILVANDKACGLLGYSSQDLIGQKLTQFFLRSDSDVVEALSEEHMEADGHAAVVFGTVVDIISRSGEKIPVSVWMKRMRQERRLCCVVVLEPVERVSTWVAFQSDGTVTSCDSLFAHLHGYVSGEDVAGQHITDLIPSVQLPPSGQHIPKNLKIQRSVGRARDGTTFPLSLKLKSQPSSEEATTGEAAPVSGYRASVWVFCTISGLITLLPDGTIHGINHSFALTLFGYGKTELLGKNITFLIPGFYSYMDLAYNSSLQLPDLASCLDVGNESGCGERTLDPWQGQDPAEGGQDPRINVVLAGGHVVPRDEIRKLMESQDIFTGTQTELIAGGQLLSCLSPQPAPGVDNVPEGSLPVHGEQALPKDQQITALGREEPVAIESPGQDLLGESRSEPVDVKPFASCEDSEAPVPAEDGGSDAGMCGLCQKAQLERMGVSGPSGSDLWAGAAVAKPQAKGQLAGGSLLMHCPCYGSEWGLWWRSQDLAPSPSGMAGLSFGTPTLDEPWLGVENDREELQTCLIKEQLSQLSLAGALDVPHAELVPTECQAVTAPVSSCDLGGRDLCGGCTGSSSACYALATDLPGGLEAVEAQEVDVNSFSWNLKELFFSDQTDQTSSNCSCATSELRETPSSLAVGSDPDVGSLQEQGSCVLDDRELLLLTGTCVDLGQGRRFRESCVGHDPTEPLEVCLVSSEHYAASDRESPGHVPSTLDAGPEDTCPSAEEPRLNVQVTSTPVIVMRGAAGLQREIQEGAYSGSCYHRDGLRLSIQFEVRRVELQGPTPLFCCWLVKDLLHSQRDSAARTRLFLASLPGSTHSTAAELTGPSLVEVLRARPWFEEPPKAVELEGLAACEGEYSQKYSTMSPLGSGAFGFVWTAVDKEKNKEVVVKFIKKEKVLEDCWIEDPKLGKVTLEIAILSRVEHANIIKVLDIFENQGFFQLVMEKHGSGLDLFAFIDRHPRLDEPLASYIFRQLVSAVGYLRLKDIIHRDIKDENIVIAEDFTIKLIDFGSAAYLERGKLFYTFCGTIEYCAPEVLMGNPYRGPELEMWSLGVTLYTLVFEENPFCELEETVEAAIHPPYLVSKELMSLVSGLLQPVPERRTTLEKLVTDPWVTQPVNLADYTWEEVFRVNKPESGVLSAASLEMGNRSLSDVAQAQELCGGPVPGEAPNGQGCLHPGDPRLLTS
# experiment: radiometric filter-binding kinase assay, Kinase HotSpot
# condition_set: compound 0.5 µM; ATP 10 µM
Record form. Attribute: residual activity. Fill in for each entry.
Give the value, in units of %, as a plain number.

Which measured residual activity belongs to `COc1ccc(COc2ccc(Cc3cnc(N)nc3N)cc2OC)cc1` , tested on PASK (human) (UniProt Q96RG2)?
103

Which measured residual activity belongs to `Cc1ccc(NC2=CC(=O)c3sc(C)nc3C2=O)cc1` , tested on PASK (human) (UniProt Q96RG2)?
89.4

Which measured residual activity belongs to `O=C(Nc1cccc(Nc2nccc(Nc3cccc(C(F)(F)F)c3)n2)c1)C1CC1` , tested on PASK (human) (UniProt Q96RG2)?
106

Which measured residual activity belongs to `COc1ccc2c(c[n+](C)c3c4cc5c(cc4ccc23)OCO5)c1OC` , tested on PASK (human) (UniProt Q96RG2)?
91.1

Which measured residual activity belongs to `CC[n+]1c(/C=C/N(C)c2ccccc2)n(-c2ccccc2)c2ccc(-c3nc4ccccc4s3)cc21` , tested on PASK (human) (UniProt Q96RG2)?
102

Which measured residual activity belongs to `CCCC(=O)Oc1ccc2[nH]c(C(=O)c3cc4ccccc4[nH]3)cc2c1` , tested on PASK (human) (UniProt Q96RG2)?
88.7

Which measured residual activity belongs to `O=S(=O)(c1cccc2cnccc12)N1CCCNCC1` , tested on PASK (human) (UniProt Q96RG2)?
97.1

Which measured residual activity belongs to `Cc1[nH]c(/C=C2\C(=O)Nc3ccc(S(=O)(=O)N(C)c4cccc(Cl)c4)cc32)c(C)c1C(=O)N1CCN(C)CC1` , tested on PASK (human) (UniProt Q96RG2)?
106

Which measured residual activity belongs to `CCOC(=O)c1c(C)[nH]c(/C=C2\C(=O)Nc3ccccc32)c1C` , tested on PASK (human) (UniProt Q96RG2)?
91.4

Which measured residual activity belongs to `CCC(=O)Nc1ccc2ncnc(Nc3cccc(Br)c3)c2c1` , tested on PASK (human) (UniProt Q96RG2)?
88.7

Which measured residual activity belongs to `Oc1cccc(-c2nc(N3CCOCC3)c3oc4ncccc4c3n2)c1` , tested on PASK (human) (UniProt Q96RG2)?
83.8

Which measured residual activity belongs to `CCN(CC)C(=O)c1ccc(Nc2nc(OCC3CCCCC3)c3nc[nH]c3n2)cc1` , tested on PASK (human) (UniProt Q96RG2)?
103

Which measured residual activity belongs to `CC(=O)c1ccc(N2CCOCC2)cc1O` , tested on PASK (human) (UniProt Q96RG2)?
95

Which measured residual activity belongs to `CC#CC(=O)Nc1cc2c(Nc3ccc(F)c(Cl)c3)ncnc2cn1` , tested on PASK (human) (UniProt Q96RG2)?
101

Which measured residual activity belongs to `CNC(=O)c1cc(Oc2ccc(NC(=O)Nc3ccc(Cl)c(C(F)(F)F)c3)cc2)ccn1` , tested on PASK (human) (UniProt Q96RG2)?
99.5

Which measured residual activity belongs to `N#C/C(=C(/N)Sc1ccc(N)cc1)c1ccccc1C(F)(F)F` , tested on PASK (human) (UniProt Q96RG2)?
101

Which measured residual activity belongs to `Nc1cccc(-c2cc3c(Oc4cccc(O)c4)ncnc3[nH]2)c1` , tested on PASK (human) (UniProt Q96RG2)?
96.2

Which measured residual activity belongs to `O=C1NC(=O)/C(=C/c2ccc3c(c2)OC(F)(F)O3)S1` , tested on PASK (human) (UniProt Q96RG2)?
78.2

Which measured residual activity belongs to `Nc1ccc2ncnc(NCCc3ccc(Oc4ccccc4)cc3)c2c1` , tested on PASK (human) (UniProt Q96RG2)?
103

Which measured residual activity belongs to `c1ccc(-c2n[nH]cc2-c2ccnc3ccccc23)nc1` , tested on PASK (human) (UniProt Q96RG2)?
77.1

Which measured residual activity belongs to `O=C1NC(=O)c2c1c1c3ccccc3n3c1c1c2c2ccccc2n1C1CCC3O1` , tested on PASK (human) (UniProt Q96RG2)?
43.3

Which measured residual activity belongs to `O=C1Nc2ccc(Cl)cc2/C1=C/c1cc(Cl)c(O)c(Cl)c1` , tested on PASK (human) (UniProt Q96RG2)?
70
